These entries and their values trace back to patent US20190105337A1.

Experiment: clinical
Conditions: both, human, in vivo, intrapulmonary penetration, unbound plasma concentrations
Procedure: A total of twenty-five (n=25) male and female subjects who met the study entry criteria and completed all phases of the pharmacokinetic study were included in this pharmacokinetic analysis. […] The concentration of drug (ABXAM) in the alveolar cells (AC) was determined as follows: […] The concentration ratios of ELF and AM to the simultaneous plasma concentrations were calculated for each subject and summarized for each group at each sampling time. […]
Can you tell me Kp for the items I'm about to list?

O=C(O)C[C@@H]1CC[C@H](NC(=O)Cc2cccs2)B(O)O1 ... 0.79

For the next question, use this compound.
Enquiry: Any idea what Kp was measured for C[C@@H](O)[C@H]1C(=O)N2C(C(=O)O)=C(S[C@@H]3CN[C@H](C(=O)N(C)C)C3)[C@H](C)[C@H]12 ?
Return: 0.65

====

experiment: Example 1: pharmacokinetics of Compound I, single (SD) and multiple (MD, q8h 7 days) ascending doses, 3-hour IV infusion, healthy adult subjects; assay type: in vivo, human; conditions: human, plasma, intravenous, 250 mg, 250 mg multiple dose
attribute.measured: Tmax
Express the reported value numerically, then name its unit.

Enquiry: For O=C(O)C[C@@H]1CC[C@H](NC(=O)Cc2cccs2)B(O)O1 , what is its reported Tmax?
Return: 2.25 h

====

assay: clinical; settings: human, in vivo, 250 mg, Cmax
attribute.measured: Cmax (ng/mL)
Answers are plain numbers, in ng/mL.

Enquiry: Field request: Cmax | item: O=C(O)C[C@@H]1CC[C@H](NC(=O)Cc2cccs2)B(O)O1
Return: 5200

====

assay: clinical; settings: both, human, in vivo, Concentration in Plasma
attribute.measured: concentration at 8 h (ng/mL)
One number for each entry, in ng/mL.

Enquiry: concentration at 8 h for C[C@@H](O)[C@H]1C(=O)N2C(C(=O)O)=C(S[C@@H]3CN[C@H](C(=O)N(C)C)C3)[C@H](C)[C@H]12 ?
Return: 1360

====

Assay: clinical
Conditions: human, in vivo, Plasma Clearance
Procedure: All infusions were administered over 3 hours. Intensive plasma and urine PK sampling was obtained after dosing and assayed using validated HPLC/MS methods.
attribute.measured: clearance (mL/min)
One number for each entry, in mL/min.

Enquiry: Value lookup for clearance; key = C[C@@H](O)[C@H]1C(=O)N2C(C(=O)O)=C(S[C@@H]3CN[C@H](C(=O)N(C)C)C3)[C@H](C)[C@H]12 [meropenem, Meropenem]
Return: 334

====

assay: clinical; conditions: both, human, in vivo, Concentration in Plasma
attribute.measured: concentration at 3.25 h
Please answer in the form of a number followed by its unit of measurement.

Enquiry: Query (compound): C[C@@H](O)[C@H]1C(=O)N2C(C(=O)O)=C(S[C@@H]3CN[C@H](C(=O)N(C)C)C3)[C@H](C)[C@H]12 ; field requested: concentration at 3.25 h
Return: 47700 ng/mL

====

assay: Example 1: pharmacokinetics of Compound I, single (SD) and multiple (MD, q8h 7 days) ascending doses, 3-hour IV infusion, healthy adult subjects; format: in vivo, human; settings: human, plasma, intravenous, 2000 mg, 2000 mg multiple dose
attribute.measured: Tmax (h)
Give bare numbers, in h.

Enquiry: What value of measured Tmax is listed for O=C(O)C[C@@H]1CC[C@H](NC(=O)Cc2cccs2)B(O)O1 ?
Return: 2.25
